- EXPERIMENTAL_TARGET: Neu5Ac(a2-6)Gal(b1-4)GlcNAc(b1-3)Gal(b1-4)[Fuc(a1-3)]GlcNAc(b1-3)Gal(b1-4)[Fuc(a1-3)]GlcNAc
- TEST: glycan array binding signal (z-score within array); higher = stronger binding
- TEST_CONDITIONS: glycan notation: IUPAC condensed, linker removed
Only a selection was taken, and the strongest signals are over-represented in it overall.
MEASURED_ENDPOINT: glycan array binding signal (z-score)
Numbers only.

[
  {
    "BINDER": "CBM32-1 (Clostridium perfringens) (protein) MGSSHHHHHHSSGLVPRGSHMASGVEITEGVTVTAKGNTEGNTADLAIDGDLSTYWESSNDYKWIEVDLGGIYELSKIEIFNKDEAVYKYNIYASEDGENFNKIAYKNNDNVSDSNGNVHTIDNVRAGKIRIDVVQNSNSDRVNIAEINVFG",
    "glycan array binding signal (z-score)": 0.193
  },
  {
    "BINDER": "FaeGad (Escherichia coli) (protein) WMTGDFNGSVDIGGSITADDYRQKWEWEVGTGLNGFGSVLNDLTNGGTKLTITVTGNKPILLGRTKEAFATPVTSGVDGIPHIAFTDYEGASVELRNPDGETEKGLTYFVLPMKNAEGTKVGSVKVNASYAGALGRGGVTSADGELMSLFAEGSHAIFYGGLPTNVKNSELKGGSAAAARTELFGSLSKNDILGQIQRVNANITSLVNVPGSFNENMAYTDGSVVSVAYALGIANGQTIEATFNQAVTTSTQWSAPLNVAITYY",
    "glycan array binding signal (z-score)": -0.414
  }
]

Lab note: next binder to report on.
Need glycan array binding signal (z-score), item rPitB (Streptococcus pneumoniae), A0A0I7U739 (protein) MSEIEIINAKKIYHDVPVIENLNITIPKGSLFTLLGASGCGKTTLLRMIAGFNSIKDGEFYFDDTKINNMEPSKRNIGLVFQNYAIFPHLTVRDNVAFGLMQKKVPKEELIQQTNKYLELMQIAQYAD 0.032
